# System: CD8F1 mice, subcutaneous mammary adenocarcinoma, T/C%
# protocol-summary: NCI In Vivo Anticancer Drug Screen. Data for tumor model Mammary Adenocarcinoma CD8F1 (subcutaneous) in CD8F1
# condition-details: endpoint: median tumor weight (est.); dose: 100.0 mg/kg/injection; schedule: Q07DX005 (ip); vehicle: Klucel (hydroxypropylcellulose) (HPC); higher = larger tumour
Records with an inconclusive call do not appear.
reported-metric: T/C

Task: Under CD8F1 mice, subcutaneous mammary adenocarcinoma, T/C%: T/C value of COC1=CC(=O)N(C(=O)C2CSC(C(CO)NC(=O)c3csc(/C=N/O)n3)=N2)C1 (stereo not drawn) ?
Output: 83 % of control

Task: Also, C[C@]12C=CC(=O)C=C1CC[C@@H]1[C@@H]2C(=O)C[C@@]2(C)[C@H]1CC[C@]2(O)C(=O)CO please.
Output: 33 % of control

Task: Another: C=CCNc1ccc(C)cc1
Output: 88 % of control

Task: And what about the compound Cc1nn(CCO)c(C)c1N=[N+]([O-])c1c(C)nn(CCO)c1C ?
Output: 43 % of control

Task: Further, for C[C@]12CCC(=O)C=C1CC[C@@H]1[C@@H]2[C@@H](O)C[C@@]2(C)[C@H]1CC[C@]2(O)C(=O)CO ?
Output: 95 % of control

Task: Query CCC1OCC(C(Cl)CCl)O1 (stereo not drawn) next
Output: 74 % of control

Task: Next record, please: C[C@@H](CN1CC(=O)NC(=O)C1)N1CC(=O)NC(=O)C1
Output: 52 % of control

Task: Follow-up item: CCCCCC[C@H]([C@H](C)O)n1cnc2c(N)ncnc21
Output: 106 % of control

----------
# Tested on: CD8F1 mice, subcutaneous mammary adenocarcinoma, T/C%
# protocol-summary: NCI In Vivo Anticancer Drug Screen. Data for tumor model Mammary Adenocarcinoma CD8F1 (subcutaneous) in CD8F1
# condition-details: endpoint: median tumor weight (est.); dose: 50.0 mg/kg/injection; schedule: Q07DX005 (ip); vehicle: saline with Tween-80; higher = larger tumour
Results filed as inconclusive are left out.
reported-metric: T/C

Solved entries:
>  <compound>
NNC(=S)N/N=C/c1ccccn1

>  <T/C>
59 % of control

$$$$
>  <compound>
CC(=Nc1ccccc1)C1=C(O)C(Cc2ccccc2)NC1=O (centres undefined)

>  <T/C>
89 % of control

$$$$
>  <compound>
CCCCc1ccc2nc(NC(=O)OC)[nH]c2c1

>  <T/C>
122 % of control

$$$$

Task: Any idea what T/C was measured for Brc1ccc(C[N+]23CN4CN(CN(C4)C2)C3)cc1 ?
Output: 96 % of control

Task: Same read-out for OC1CCCC2CCCNC12 (centres undefined) ?
Output: 73 % of control

Task: What about O=Cc1ccc(C(Cl)(Cl)Cl)cc1 ?
Output: 97 % of control

Task: Then COc1ccc2cc1Oc1ccc(cc1)C[C@H]1c3cc(c(OC)cc3CCN1C)Oc1c(OC)c(OC)cc3c1[C@H](C2)N(C)CC3 ?
Output: 102 % of control

Task: Follow-up entry: Cn1c2nc(=O)n(-c3ccccc3)c(=O)c-2nc2c1CCCC2
Output: 119 % of control

Task: Do the same for CC(=O)O[C@@H]1[C@@H](O)C2=C3[C@]4(C)[C@@H]1C(C)(C)C(=O)C[C@@H]4[C@]3(O)[C@H](OC(C)=O)[C@@]1(C[C@@H]1C)C2=O please
Output: 72 % of control
